assay: small molecules boosting NK-mediated OVCAR3 lysis – imaging, primary NK cells, calcein-AM imaging, primary screen (AID 1508625); details: OVCAR3 lysis by primary NK cells, at 5 µM; measured here: robust Z-score, single-point normalisation;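 also: compound given to NK cells 16 h before adding targets at 1.5 to 1 ratio; more negative robust z means stronger NK killing of tumor cells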
Entry flag: met if z-score reaches -0.9; not met if it does not.

Reported z-score reaches at least -0.9 for "COc1ccc(N2CCN(C(=O)c3ccc4ccccc4n3)CC2)cc1" ?
met

Reported z-score reaches at least -0.9 for "O=C(Nc1ccc(Br)cc1)c1ccc(Cl)c(S(=O)(=O)N2CCCCCC2)c1" ?
not met

Reported z-score reaches at least -0.9 for COc1ccc(OC)c(C2Nc3ccccc3NC3=C2C(=O)CC(C)(C)C3)c1 (stereo unspecified) ?
not met

Reported z-score reaches at least -0.9 for "CC(C)(C)NC(=O)CSc1nc2ccc(Cl)cc2o1" ?
met

Reported z-score reaches at least -0.9 for "CCCOc1ccc(C(=O)Nc2ccc3nn(-c4ccc(OCC)cc4)nc3c2)cc1" ?
not met

Reported z-score reaches at least -0.9 for "COC(=O)c1ccc(COC(=O)c2cc3ccccc3oc2=O)cc1" ?
not met

Reported z-score reaches at least -0.9 for O=C1C(=O)N(CCO)C(c2ccc(Br)cc2)C1=C(O)c1ccccc1 (stereo unspecified) ?
met

Reported z-score reaches at least -0.9 for CCc1noc(C)c1C(=O)N1CC(C)OC(C)C1 (stereo unspecified) ?
not met

Reported z-score reaches at least -0.9 for O=C(c1ccncc1)N1CCN(CC2CC=CCC2)CC1 (stereo unspecified) ?
not met

Reported z-score reaches at least -0.9 for COc1cc([N+](=O)[O-])ccc1N1C(=O)C2C3C=CC(CC3)C2C1=O (stereo unspecified) ?
met

Reported z-score reaches at least -0.9 for "CCOC(=O)c1c(NC(=O)c2ccc(C(=O)c3ccccc3)cc2)sc2c1CCCC2" ?
met

* * *

experiment: small molecules boosting NK-mediated OVCAR3 lysis – imaging, primary NK cells, calcein-AM imaging, primary screen (AID 1508625); conditions: OVCAR3 lysis by primary NK cells, at 5 µM; measured here: robust Z-score, single-point normalisation;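 also: compound given to NK cells 16 h before adding targets at 1.5 to 1 ratio; more negative robust z means stronger NK killing of tumor cells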
For each record, write down the corresponding z-score.
Please give only the number in your answer, with no unit.

So what's the measured z-score for this one? "O=C(c1cccc(F)c1)N1CCCN(C(=O)c2cccc(F)c2)CC1"
-1.69

So what's the measured z-score for this one? "COc1c(Cl)cccc1NC(=O)c1cccc2ccccc12"
-1.31

So what's the measured z-score for this one? CSc1nnc2c(n1)OC(c1ccc(OCC(=O)O)cc1)Nc1ccccc1-2 (configuration not stated)
-0.915

So what's the measured z-score for this one? CN1C(=O)c2ccccc2C(C(=O)NCCCN2CCCCCC2)C1c1cccs1 (configuration not stated)
-1.41

So what's the measured z-score for this one? "COc1ccccc1CN1CCN(C2CCN(Cc3ccccc3)CC2)CC1"
0.0605

So what's the measured z-score for this one? "Clc1cccc(N2CCN(Cc3cn4c(-c5cccc(Br)c5)nnc4s3)CC2)c1"
-1.91

So what's the measured z-score for this one? CC1=C(C(=O)OC(C)C(C)(C)C)C(c2ccccc2)NC(=O)N1 (configuration not stated)
-1.71

So what's the measured z-score for this one? "CC(=O)c1cccc(NC(=O)C2CCN(C(=O)c3ccc(F)cc3)CC2)c1"
-1.22

So what's the measured z-score for this one? "CCOC(=O)c1ccc2c(c1)[C@@H]1C=CC[C@@H]1[C@H](c1ccccc1C(F)(F)F)N2"
-0.905

So what's the measured z-score for this one? "CCOc1ccc(OCC)c(NC(=O)C2(S(=O)(=O)c3ccc(Cl)cc3)CC2)c1"
-1.32

So what's the measured z-score for this one? "COC(=O)c1ccc(CSc2nc3c(cnn3-c3ccc(C)cc3)c(=O)[nH]2)o1"
-0.89

So what's the measured z-score for this one? "CCOc1ccc(OCC(=O)NC(C)C)cc1"
-2.82

So what's the measured z-score for this one? "Cc1ccc(OCCCCNC2CCCCC2)c(C)c1"
2.34

So what's the measured z-score for this one? "COc1ccccc1N1CCN(C(=O)c2cnn3c(C(F)(F)F)cc(-c4ccc(C)cc4)nc23)CC1"
-1.43

So what's the measured z-score for this one? "O=C(CCn1c(=S)[nH]c2ccccc2c1=O)NCCc1ccc(Cl)cc1"
-0.633

So what's the measured z-score for this one? "N#Cc1c(NC(=O)c2ccc(Cl)c(S(=O)(=O)N3CCOCC3)c2)sc2c1CCCC2"
-1.95

So what's the measured z-score for this one? Cc1cccc(C(=O)N2N=C(C(F)(F)F)CC2(O)C(C)(C)C)c1 (configuration not stated)
-0.95

So what's the measured z-score for this one? "O=C1NC(=S)SC1=Cc1cc(Cl)ccc1O"
-1.87

So what's the measured z-score for this one? "Cc1cc([N+](=O)[O-])ccc1N=Cc1ccc(Br)s1"
-0.944

So what's the measured z-score for this one? "CC(C)(C)NC(=O)C(=O)NN=Cc1cccc(Br)c1"
-1.82

So what's the measured z-score for this one? Cc1ccc(C(=O)COC(=O)c2ccc(N3C(=O)C4CCC(C)CC4C3=O)cc2)cc1[N+](=O)[O-] (configuration not stated)
-1.37

So what's the measured z-score for this one? COc1ccc(C2Nc3ccccc3NC3=C2C(=O)CC(c2ccco2)C3)cc1 (configuration not stated)
-0.853
